# Test system: BMP-2 promoter
# measurement-protocol: ABA assay: BMP-2 promoter-luciferase reporter in 2T3-BMP-2-LUC osteoblast cells
# Assay type: cell-based, mouse
# measurement-parameters: Experiment 1; 0.390625 μg/ml
measure: % 59-0008 Response (%)
The answer is to be given in %; state only the numeric part.

Worked set:
# molecule-smiles, observed-measurement
data = [
    ("CCC(C)(C)C(=O)O[C@H]1C[C@@H](C)C=C2C=C[C@H](C)[C@H](CC[C@@H]3C[C@@H](O)CC(=O)O3)[C@H]21", 38.210),
    ("CC[C@H](C)C(=O)O[C@H]1CCC=C2C=C[C@H](C)[C@H](CC[C@@H]3C[C@@H](O)CC(=O)O3)[C@H]21", 15.650),
]

Then this compound:
Lab note: need % 59-0008 Response for `CC[C@H](C)C(=O)O[C@H]1C[C@H](O)C=C2C=C[C@H](C)[C@H](CC[C@@H](O)C[C@@H](O)CC(=O)O)[C@H]21` on BMP-2 promoter, anyone have it? −1.290
